Cited source for all entries: ChEMBL document CHEMBL4402545

Could you please report measured Efficacy for the items listed next?
Target: Gamma-aminobutyric acid receptor subunit alpha-5 (Homo sapiens) (UniProt P31644)
Sequence (whole entry): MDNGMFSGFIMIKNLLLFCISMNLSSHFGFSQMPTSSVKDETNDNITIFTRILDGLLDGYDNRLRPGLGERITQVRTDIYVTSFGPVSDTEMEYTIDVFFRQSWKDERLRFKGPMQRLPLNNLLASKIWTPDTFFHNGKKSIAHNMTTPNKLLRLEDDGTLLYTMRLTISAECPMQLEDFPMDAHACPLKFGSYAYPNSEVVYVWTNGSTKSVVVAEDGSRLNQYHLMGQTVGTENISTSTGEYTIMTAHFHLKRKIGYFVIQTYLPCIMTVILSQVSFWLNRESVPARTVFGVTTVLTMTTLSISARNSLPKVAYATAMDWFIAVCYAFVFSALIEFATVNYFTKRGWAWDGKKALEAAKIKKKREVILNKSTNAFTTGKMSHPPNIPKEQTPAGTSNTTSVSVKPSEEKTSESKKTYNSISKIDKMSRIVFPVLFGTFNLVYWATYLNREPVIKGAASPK
Test: Binding affinity to GABA-A alpha5 (unknown origin) assessed as reduction in DMCM induced current relative to control
Numeric only. Scale: %

Could you share which Efficacy value was measured for Cc1onc(-c2ccc(F)cc2)c1COc1ccc(C(=O)N2CCS(=O)(=O)CC2)cn1 [BASMISANIL] ?
-39

Could you share which Efficacy value was measured for COCc1ncn2c1CN(C)C(=O)c1cc(Cl)ccc1-2 ?
-20

Could you share which Efficacy value was measured for Clc1ccc2c(c1)-c1ncnn1Cc1c(Cl)ncn1-2 ?
-40

Could you share which Efficacy value was measured for FC(F)c1ncn2c1Cn1ncnc1-c1cc(Br)ccc1-2 ?
-35

====

Could you please report measured Efficacy for the items listed next?
target: Gamma-aminobutyric acid receptor subunit alpha-2 (Homo sapiens) (UniProt P47869); experiment: Binding affinity to GABA-A alpha2 (unknown origin) assessed as reduction in DMCM induced current relative to control
Numeric only. Scale: %

Could you share which Efficacy value was measured for FC(F)c1ncn2c1Cn1ncnc1-c1cc(Br)ccc1-2 ?
-4

Could you share which Efficacy value was measured for Clc1ccc2c(c1)-c1ncnn1Cc1c(Cl)ncn1-2 ?
-9

Could you share which Efficacy value was measured for Cc1onc(-c2ccc(F)cc2)c1COc1ccc(C(=O)N2CCS(=O)(=O)CC2)cn1 [BASMISANIL] ?
-6

Could you share which Efficacy value was measured for Cc1c(F)c(Nc2ccc(-c3cn(C)cn3)cn2)cc2c1ncn2CC1CC1 ?
0

Could you share which Efficacy value was measured for COCc1ncn2c1CN(C)C(=O)c1cc(Cl)ccc1-2 ?
15

====

molecular target: Gamma-aminobutyric acid receptor subunit alpha-1 (Homo sapiens); test: Negative allosteric modulation of GABA-A alpha1 (unknown origin) assessed as reduction in DMCM induced current relative to control
Could you please report measured Efficacy for the items listed next?

Could you share which Efficacy value was measured for COCc1ncn2c1CN(C)C(=O)c1cc(Cl)ccc1-2 ?
20%

Could you share which Efficacy value was measured for Cc1c(F)c(Nc2ccc(-c3cn(C)cn3)cn2)cc2c1ncn2CC1CC1 ?
0%

Could you share which Efficacy value was measured for Cc1onc(-c2ccc(F)cc2)c1COc1ccc(C(=O)N2CCS(=O)(=O)CC2)cn1 [BASMISANIL] ?
-4%

Could you share which Efficacy value was measured for FC(F)c1ncn2c1Cn1ncnc1-c1cc(Br)ccc1-2 ?
-3%

Could you share which Efficacy value was measured for Clc1ccc2c(c1)-c1ncnn1Cc1c(Cl)ncn1-2 ?
-3%

====

Biological target: Gamma-aminobutyric acid receptor subunit alpha-3 (Homo sapiens)
Sequence (whole entry): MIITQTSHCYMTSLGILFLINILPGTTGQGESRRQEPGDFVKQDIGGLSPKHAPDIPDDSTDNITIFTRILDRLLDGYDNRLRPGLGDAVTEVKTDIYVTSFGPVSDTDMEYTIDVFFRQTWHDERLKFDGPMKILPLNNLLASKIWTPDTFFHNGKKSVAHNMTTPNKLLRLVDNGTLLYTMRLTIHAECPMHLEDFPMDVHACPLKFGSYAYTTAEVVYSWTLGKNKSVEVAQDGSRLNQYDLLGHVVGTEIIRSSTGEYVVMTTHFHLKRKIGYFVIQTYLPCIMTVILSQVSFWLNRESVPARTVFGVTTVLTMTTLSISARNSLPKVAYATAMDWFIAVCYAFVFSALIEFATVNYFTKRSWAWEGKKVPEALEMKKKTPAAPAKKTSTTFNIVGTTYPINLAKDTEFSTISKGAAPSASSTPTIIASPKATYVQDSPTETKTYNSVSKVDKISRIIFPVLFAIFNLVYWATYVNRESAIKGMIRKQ
Assay: Binding affinity to GABA-A alpha3 (unknown origin) assessed as increase in induced current relative to control
# binarize fold change (FC): threshold 0.4 inclusive, high side Y, low side N

# bool: fold change (FC) of C#Cc1ccc2c(c1)C(c1ccccn1)=NCc1c(C(=O)OCC)ncn1-2 >= 0.4
N

# bool: fold change (FC) of CC(C)(O)c1cnn2c(-c3ccc(F)c(-c4c(F)cccc4C#N)c3)cnc2n1 >= 0.4
Y

# bool: fold change (FC) of C#Cc1ccc2c(c1)C(c1ccccc1F)=N[C@H](C)c1c(C(=O)OCC)ncn1-2 >= 0.4
N

# bool: fold change (FC) of C#Cc1ccc2c(c1)C(c1ccccn1)=NCc1c(-c3cnco3)ncn1-2 >= 0.4
Y

# bool: fold change (FC) of C#Cc1ccc2c(c1)C(c1ccccc1F)=N[C@H](C)c1c(C(=O)NC)ncn1-2 >= 0.4
N

# bool: fold change (FC) of Cn1ncnc1COc1nn2c(-c3cc(F)ccc3F)nnc2cc1C(C)(C)C >= 0.4
Y

# bool: fold change (FC) of C#Cc1ccc2c(c1)C(c1ccccc1F)=N[C@@H](C)c1c(C(=O)OCC)ncn1-2 >= 0.4
N

# bool: fold change (FC) of CC(C)(O)c1ccc2c(c1)ncn2-c1cccc(-c2ccccc2C#N)c1 >= 0.4
Y

# bool: fold change (FC) of CCn1cnc2c(-c3ccc(F)c(-c4ccc(S(=O)(=O)CC)cc4OC)c3)cnnc21 [DARIGABAT] >= 0.4
Y

# bool: fold change (FC) of CC(C)(O)c1ccc2c(c1)ncn2-c1cccc(-c2cc(C#N)ccc2Cl)n1 >= 0.4
Y

====

Biological target: Gamma-aminobutyric acid receptor subunit alpha-3 (Homo sapiens) (UniProt P34903)
Sequence (whole entry): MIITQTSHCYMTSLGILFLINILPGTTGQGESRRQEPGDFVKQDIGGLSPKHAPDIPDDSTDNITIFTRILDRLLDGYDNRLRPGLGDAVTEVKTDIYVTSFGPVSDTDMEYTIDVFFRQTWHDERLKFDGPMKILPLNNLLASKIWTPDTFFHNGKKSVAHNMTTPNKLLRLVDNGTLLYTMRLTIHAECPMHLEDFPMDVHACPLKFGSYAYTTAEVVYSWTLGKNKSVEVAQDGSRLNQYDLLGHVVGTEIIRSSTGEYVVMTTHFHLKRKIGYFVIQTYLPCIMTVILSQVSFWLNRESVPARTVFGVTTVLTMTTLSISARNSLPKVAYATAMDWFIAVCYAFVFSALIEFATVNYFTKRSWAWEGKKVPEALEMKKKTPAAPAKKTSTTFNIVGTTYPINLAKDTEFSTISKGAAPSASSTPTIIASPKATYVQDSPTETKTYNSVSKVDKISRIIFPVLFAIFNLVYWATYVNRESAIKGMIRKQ
Assay: Binding affinity to GABA-A alpha3 (unknown origin) assessed as reduction in DMCM induced current relative to control
measured-attribute: Efficacy (%)
Numeric only. Scale: %

Could you share which Efficacy value was measured for COCc1ncn2c1CN(C)C(=O)c1cc(Cl)ccc1-2 ?
45

Could you share which Efficacy value was measured for Cc1c(F)c(Nc2ccc(-c3cn(C)cn3)cn2)cc2c1ncn2CC1CC1 ?
0

Could you share which Efficacy value was measured for Cc1onc(-c2ccc(F)cc2)c1COc1ccc(C(=O)N2CCS(=O)(=O)CC2)cn1 [BASMISANIL] ?
-2

Could you share which Efficacy value was measured for Clc1ccc2c(c1)-c1ncnn1Cc1c(Cl)ncn1-2 ?
-11

Could you share which Efficacy value was measured for FC(F)c1ncn2c1Cn1ncnc1-c1cc(Br)ccc1-2 ?
2

====

experiment: Half life in rat at 1 mg/kg, po; assay type: ADME, organism-based; settings: in vivo
measured-attribute: half-life (min)
Numeric only. Scale: min

Could you share which half-life value was measured for CCn1cnc2c(-c3ccc(F)c(-c4ccc(S(=O)(=O)CC)cc4OC)c3)cnnc21 ?
330

====

Target: Gamma-aminobutyric acid receptor subunit alpha-2 (Homo sapiens) (UniProt P47869)
Sequence (whole entry): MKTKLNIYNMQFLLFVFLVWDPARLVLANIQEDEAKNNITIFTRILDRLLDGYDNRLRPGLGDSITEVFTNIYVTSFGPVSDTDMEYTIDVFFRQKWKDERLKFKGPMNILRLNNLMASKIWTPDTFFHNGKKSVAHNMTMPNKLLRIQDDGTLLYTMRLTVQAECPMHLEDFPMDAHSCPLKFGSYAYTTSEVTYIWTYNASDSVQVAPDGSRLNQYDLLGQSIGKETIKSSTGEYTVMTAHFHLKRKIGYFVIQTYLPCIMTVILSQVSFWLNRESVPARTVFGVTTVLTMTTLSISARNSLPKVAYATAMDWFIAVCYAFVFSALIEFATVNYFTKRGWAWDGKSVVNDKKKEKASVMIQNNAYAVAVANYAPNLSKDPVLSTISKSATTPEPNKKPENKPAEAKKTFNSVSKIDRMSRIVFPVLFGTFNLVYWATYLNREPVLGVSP
Test: Binding affinity to GABA-A alpha2 (unknown origin) assessed as increase in induced current relative to control
Could you please report measured fold change (FC) for the items listed next?
Respond using a number only.

Could you share which fold change (FC) value was measured for C#Cc1ccc2c(c1)C(c1ccccn1)=NCc1c(C(=O)OCC)ncn1-2 ?
0.52

Could you share which fold change (FC) value was measured for C#Cc1ccc2c(c1)C(c1ccccn1)=NCc1c(-c3cnco3)ncn1-2 ?
0.66

Could you share which fold change (FC) value was measured for Cn1ncnc1COc1nn2c(-c3cc(F)ccc3F)nnc2cc1C(C)(C)C ?
0.43

Could you share which fold change (FC) value was measured for C#Cc1ccc2c(c1)C(c1ccccc1F)=N[C@H](C)c1c(C(=O)NC)ncn1-2 ?
0.5

Could you share which fold change (FC) value was measured for C#Cc1ccc2c(c1)C(c1ccccc1F)=N[C@H](C)c1c(C(=O)OCC)ncn1-2 ?
0.19

Could you share which fold change (FC) value was measured for C#Cc1ccc2c(c1)C(c1ccccc1F)=N[C@@H](C)c1c(C(=O)OCC)ncn1-2 ?
0.57

Could you share which fold change (FC) value was measured for CC(C)(O)c1ccc2c(c1)ncn2-c1cccc(-c2ccccc2C#N)c1 ?
0.26

Could you share which fold change (FC) value was measured for CCn1cnc2c(-c3ccc(F)c(-c4ccc(S(=O)(=O)CC)cc4OC)c3)cnnc21 ?
0.35

Could you share which fold change (FC) value was measured for CC(C)(O)c1ccc2c(c1)ncn2-c1cccc(-c2cc(C#N)ccc2Cl)n1 ?
0.27

Could you share which fold change (FC) value was measured for CC(C)(O)c1cnn2c(-c3ccc(F)c(-c4c(F)cccc4C#N)c3)cnc2n1 ?
0.38
